# Pair-wise inhibition (%) annotations
# EXPERIMENTAL_SYSTEM: recombinant pentameric gH complex (Towne strain) (human cytomegalovirus, Towne strain) (UniProt P17176)
# Sequence (P17176 30-715, one chain of several): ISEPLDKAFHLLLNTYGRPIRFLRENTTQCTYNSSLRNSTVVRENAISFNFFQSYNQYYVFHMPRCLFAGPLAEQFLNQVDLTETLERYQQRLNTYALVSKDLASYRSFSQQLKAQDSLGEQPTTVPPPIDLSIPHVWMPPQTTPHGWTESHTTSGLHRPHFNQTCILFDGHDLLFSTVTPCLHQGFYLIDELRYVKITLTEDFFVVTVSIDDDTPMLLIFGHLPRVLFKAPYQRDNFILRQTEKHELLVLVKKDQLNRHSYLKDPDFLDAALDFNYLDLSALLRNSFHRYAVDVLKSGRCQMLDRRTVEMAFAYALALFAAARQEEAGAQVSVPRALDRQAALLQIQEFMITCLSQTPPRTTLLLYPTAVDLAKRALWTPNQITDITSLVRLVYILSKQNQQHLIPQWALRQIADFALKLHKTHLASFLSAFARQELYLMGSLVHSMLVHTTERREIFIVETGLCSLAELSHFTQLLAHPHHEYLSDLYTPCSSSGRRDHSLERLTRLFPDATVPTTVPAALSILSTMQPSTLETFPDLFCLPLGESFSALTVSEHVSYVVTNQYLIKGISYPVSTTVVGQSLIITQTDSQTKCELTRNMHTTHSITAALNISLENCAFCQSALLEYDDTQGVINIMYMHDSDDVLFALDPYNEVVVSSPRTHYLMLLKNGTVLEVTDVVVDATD
# METHOD_NOTES: BLI competition on His-pentamer; competitor (antibody 2): 270.7
Numeric answer only, unit % assumed.

BINDER	Pair-wise inhibition (%)
2-25 (antibody, V domains shown) VH: QVQLVESGAEVKKPGALVKVSCKASGYTFTNYAIHWVRQASGQRLEWMGWINAGRGNTKYSQKFQGRVTITRDTSASTAYMELSSLRSEDAAVYFCARDESTGDYYYYMDVWGKGTTVTVSS VL: SYELTQPPSVSVSPGQTASITCSGDRLDDKYASWYQQKAGQSPVLVIYQDNKRPSGIPERFSGSNSGNTATLTISGTQAMDEADYYCQAWDSDTYVFGTGTKVTVL	-10

Tell me its Pair-wise inhibition (%) given 2-18 (antibody, V domains shown) VH: EVQLVQSGGGLVQPGGSLRVSCAASGFSFSDHDMDWVRQAPGKGFEWVGRSRNKDYSSTTEYAASVRGRFTISRHTSEDLLYLELNTVKTEDTAVYFCARGPHHSDRSGYYGGTFDIWGQGTMVTVSS VL: DIQMTQSPSSVSASVGDRVIITCRASQGISSWLAWYQQKPGRAPRLLIYDASTLESGVPSRFSGRGSGTEFTLTINSLQPEDFATYYCQQGNMFPLTFGGGTKVEIK as the entry.
-6
